Molecular target: plasma purified human complement protein C3 (human) (UniProt P01024)
Sequence (P01024 23-667, chain 1 of 2): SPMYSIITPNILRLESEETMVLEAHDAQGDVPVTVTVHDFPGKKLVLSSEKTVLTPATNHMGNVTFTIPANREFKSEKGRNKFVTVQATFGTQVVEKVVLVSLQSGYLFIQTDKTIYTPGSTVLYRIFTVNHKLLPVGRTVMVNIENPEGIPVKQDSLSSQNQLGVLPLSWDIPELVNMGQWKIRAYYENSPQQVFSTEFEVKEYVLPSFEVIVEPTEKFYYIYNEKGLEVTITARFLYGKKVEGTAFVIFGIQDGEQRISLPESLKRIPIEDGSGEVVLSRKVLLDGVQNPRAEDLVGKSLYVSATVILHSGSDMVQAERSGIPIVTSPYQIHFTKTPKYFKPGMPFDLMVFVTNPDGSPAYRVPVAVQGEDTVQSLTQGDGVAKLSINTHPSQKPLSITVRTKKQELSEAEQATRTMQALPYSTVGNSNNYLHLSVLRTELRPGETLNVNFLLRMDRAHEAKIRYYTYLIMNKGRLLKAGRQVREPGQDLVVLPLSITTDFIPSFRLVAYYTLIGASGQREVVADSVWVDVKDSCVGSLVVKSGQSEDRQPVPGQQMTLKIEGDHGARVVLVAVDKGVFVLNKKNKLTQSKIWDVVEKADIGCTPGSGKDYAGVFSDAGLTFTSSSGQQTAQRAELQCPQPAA
Sequence (P01024 672-1663, chain 2 of 2): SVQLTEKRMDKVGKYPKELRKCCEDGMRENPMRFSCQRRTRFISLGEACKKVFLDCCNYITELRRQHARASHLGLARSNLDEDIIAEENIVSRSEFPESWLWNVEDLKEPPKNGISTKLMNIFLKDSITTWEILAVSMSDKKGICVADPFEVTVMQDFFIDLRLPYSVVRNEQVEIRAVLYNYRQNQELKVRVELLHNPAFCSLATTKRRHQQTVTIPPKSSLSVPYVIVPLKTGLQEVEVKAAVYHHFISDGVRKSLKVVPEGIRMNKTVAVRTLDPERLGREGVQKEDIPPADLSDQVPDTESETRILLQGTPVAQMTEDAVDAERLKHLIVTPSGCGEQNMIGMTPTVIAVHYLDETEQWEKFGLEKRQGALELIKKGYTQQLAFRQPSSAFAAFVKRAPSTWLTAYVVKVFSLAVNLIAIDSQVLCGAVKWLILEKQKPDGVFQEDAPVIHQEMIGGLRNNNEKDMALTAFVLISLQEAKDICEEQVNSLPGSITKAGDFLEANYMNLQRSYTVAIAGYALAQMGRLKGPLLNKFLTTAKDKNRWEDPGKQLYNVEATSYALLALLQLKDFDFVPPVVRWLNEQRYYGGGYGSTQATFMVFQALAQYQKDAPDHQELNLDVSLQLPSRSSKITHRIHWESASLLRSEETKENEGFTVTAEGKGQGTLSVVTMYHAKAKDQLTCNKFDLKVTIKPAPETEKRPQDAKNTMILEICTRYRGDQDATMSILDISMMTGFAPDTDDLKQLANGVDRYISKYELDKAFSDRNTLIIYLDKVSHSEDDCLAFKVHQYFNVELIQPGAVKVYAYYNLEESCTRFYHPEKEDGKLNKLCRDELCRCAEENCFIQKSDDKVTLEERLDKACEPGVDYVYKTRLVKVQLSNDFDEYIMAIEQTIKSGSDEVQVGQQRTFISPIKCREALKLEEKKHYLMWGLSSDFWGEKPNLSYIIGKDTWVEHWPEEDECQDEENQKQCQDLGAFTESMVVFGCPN
Assay: cell-based or functional assay
measured.property: EC50 of hC3 cleavage (nM)
Please respond with the number in nM and leave the unit unwritten.

| binder | EC50 of hC3 cleavage (nM) |
| --- | --- |
| MTSP-1 L33M/Q38H/I41A/D60bA/ins97aV/F97D/T98P/F99L/C122S/Q192G/D217N (enzyme) VVGGTDADEGEWPWQVSMHALGHGHACGASLISPNWLVSAAHCYIDARGFRYSDPTQWTAFLGLHDQSQRSAPGVQERRLKRIISHPFFNDDVPLDYDIALLELEKPAEYSSMVRPISLPDASHVFPAGKAIWVTGWGHTQYGGTGALILQKGEIRVINQTTCENLLPQQITPRMMCVGFLSGGVDSCGGDSGGPLSSVEADGRIFQAGVVSWGNGCAQRNKPGVYTRLPLFRDWIKENTGV | 50 |

In the following, a different binder is considered.
Value of EC50 of hC3 cleavage reported for the binder MTSP-1 Q38K/I41T/D60bY/ins97aV/F97D/T98P/F99L/C122S/I136T/Q192G/F208V/D217R (enzyme) VVGGTDADEGEWPWQVSLHALGKGHTCGASLISPNWLVSAAHCYIDYRGFRYSDPTQWTAFLGLHDQSQRSAPGVQERRLKRIISHPFFNDDVPLDYDIALLELEKPAEYSSMVRPISLPDASHVFPAGKATWVTGWGHTQYGGTGALILQKGEIRVINQTTCENLLPQQITPRMMCVGFLSGGVDSCGGDSGGPLSSVEADGRIVQAGVVSWGRGCAQRNKPGVYTRLPLFRDWIKENTGV is 19.5
